The measurements presented in this section are drawn from ChEMBL document CHEMBL1140868.

The compounds below have reported IC50 for Collagenase 3 (Homo sapiens).
Report field: quantity (unit follows the number).

{"SMI": "CNC(=O)[C@H](Cc1ccc(NC(=N)N)cc1)NC(=O)[C@H](CC(C)C)[C@H](CCCc1ccccc1)C(=O)NO", "TARGET OR SYSTEM": "Collagenase 3 (Homo sapiens)", "IC50": "0.1 nM"}

Then this compound:
Ask: Give Collagenase 3 (Homo sapiens) IC50 for C=CCONC(=O)[C@@H]1[C@@H](C)N(C(C)=O)CCN1S(=O)(=O)c1ccc(OCc2ccc(C)cc2)cc1
Result: 3 nM

----------
# TARGET OR SYSTEM: Matrix metalloproteinase-9 (Homo sapiens, UniProt P14780)
# Sequence (P14780 whole entry): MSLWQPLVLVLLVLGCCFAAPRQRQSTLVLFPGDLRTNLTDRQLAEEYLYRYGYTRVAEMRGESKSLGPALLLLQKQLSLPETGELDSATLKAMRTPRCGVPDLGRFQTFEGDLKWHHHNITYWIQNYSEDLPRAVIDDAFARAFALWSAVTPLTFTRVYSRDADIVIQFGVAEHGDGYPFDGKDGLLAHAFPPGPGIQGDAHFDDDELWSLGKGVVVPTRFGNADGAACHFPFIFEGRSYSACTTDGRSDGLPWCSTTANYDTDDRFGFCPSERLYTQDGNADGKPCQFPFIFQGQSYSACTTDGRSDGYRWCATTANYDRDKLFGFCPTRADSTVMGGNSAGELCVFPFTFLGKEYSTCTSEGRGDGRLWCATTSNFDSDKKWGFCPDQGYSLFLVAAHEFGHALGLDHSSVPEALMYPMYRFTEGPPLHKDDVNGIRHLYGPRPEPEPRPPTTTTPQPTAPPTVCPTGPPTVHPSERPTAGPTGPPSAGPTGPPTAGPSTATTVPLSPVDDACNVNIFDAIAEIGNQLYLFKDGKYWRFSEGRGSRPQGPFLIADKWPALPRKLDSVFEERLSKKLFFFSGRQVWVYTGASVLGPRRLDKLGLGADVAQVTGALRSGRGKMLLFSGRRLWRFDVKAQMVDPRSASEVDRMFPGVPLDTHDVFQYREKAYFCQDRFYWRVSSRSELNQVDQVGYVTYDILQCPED
RECORDED METRIC: IC50 (nM)
Kindly answer with a numeric value in nM, unit omitted.

Ask: Give Matrix metalloproteinase-9 (Homo sapiens, UniProt P14780) IC50 for C/C=C/C=C/C=C1/C=C(CCC(=O)NO)C(=O)OC1
Result: 23

----------
# TARGET OR SYSTEM: Disintegrin and metalloproteinase domain-containing protein 17 (Sus scrofa, UniProt O77636)
# Sequence (O77636 whole entry, the tested form may be a part): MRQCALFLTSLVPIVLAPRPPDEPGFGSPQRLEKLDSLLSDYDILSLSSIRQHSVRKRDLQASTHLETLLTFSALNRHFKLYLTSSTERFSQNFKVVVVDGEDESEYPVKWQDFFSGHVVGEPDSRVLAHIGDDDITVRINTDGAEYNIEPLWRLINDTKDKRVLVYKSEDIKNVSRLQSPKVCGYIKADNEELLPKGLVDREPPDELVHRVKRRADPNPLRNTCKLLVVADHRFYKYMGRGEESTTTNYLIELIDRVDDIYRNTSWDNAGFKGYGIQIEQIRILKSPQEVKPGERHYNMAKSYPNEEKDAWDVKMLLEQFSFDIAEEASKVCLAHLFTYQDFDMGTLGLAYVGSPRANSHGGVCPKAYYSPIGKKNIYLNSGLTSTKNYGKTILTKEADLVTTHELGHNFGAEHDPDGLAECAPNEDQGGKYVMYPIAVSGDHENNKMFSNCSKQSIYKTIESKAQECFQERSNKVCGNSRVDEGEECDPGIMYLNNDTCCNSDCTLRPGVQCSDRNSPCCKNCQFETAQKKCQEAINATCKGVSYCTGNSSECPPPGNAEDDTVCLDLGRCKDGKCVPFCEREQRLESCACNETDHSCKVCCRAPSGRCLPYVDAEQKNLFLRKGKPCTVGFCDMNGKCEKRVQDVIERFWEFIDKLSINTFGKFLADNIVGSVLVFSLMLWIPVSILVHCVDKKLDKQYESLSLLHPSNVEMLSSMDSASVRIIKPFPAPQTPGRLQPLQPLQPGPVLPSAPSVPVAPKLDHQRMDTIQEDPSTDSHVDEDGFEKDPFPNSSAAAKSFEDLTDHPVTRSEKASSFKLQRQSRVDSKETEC
RECORDED METRIC: pKi
Please treat pKi as minus the base-10 logarithm of the molar concentration.

Ask: // returns reported pKi for input COc1cc(COc2ccc3c(c2)NCCN(C(CCCCNS(C)(=O)=O)C(=O)NO)S3(=O)=O)cc(OC)c1 (stereo unspecified)
Result: 8.30

----------
# TARGET OR SYSTEM: 72 kDa type IV collagenase (Homo sapiens, UniProt P08253)
# Sequence (P08253 whole entry): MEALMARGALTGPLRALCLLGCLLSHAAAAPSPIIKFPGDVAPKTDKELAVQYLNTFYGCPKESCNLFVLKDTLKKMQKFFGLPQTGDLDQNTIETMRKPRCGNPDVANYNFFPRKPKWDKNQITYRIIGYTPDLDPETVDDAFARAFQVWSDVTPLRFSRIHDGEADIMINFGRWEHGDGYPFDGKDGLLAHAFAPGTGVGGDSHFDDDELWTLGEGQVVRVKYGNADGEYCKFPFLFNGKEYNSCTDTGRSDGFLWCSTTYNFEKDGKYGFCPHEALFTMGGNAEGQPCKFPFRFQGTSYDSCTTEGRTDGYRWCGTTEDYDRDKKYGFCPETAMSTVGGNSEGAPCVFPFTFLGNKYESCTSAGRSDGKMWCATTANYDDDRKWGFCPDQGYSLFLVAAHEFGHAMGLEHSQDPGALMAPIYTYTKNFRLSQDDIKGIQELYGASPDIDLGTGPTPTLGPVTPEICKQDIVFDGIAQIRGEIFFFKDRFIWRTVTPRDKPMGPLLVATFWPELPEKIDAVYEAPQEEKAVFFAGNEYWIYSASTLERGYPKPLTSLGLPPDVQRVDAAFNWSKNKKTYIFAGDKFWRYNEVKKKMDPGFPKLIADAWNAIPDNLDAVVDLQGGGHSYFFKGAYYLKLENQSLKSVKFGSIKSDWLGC
RECORDED METRIC: IC50 (nM)
Kindly answer with a numeric value in nM, unit omitted.

Ask: Give 72 kDa type IV collagenase (Homo sapiens, UniProt P08253) IC50 for C/C=C/C=C/C=C1/C=C(CCC(=O)NO)C(=O)OC1
Result: 6

----------
The molecules below have reported IC50 for Interstitial collagenase (Homo sapiens, UniProt P03956).
Report field: quantity (unit follows the number).

{"SMI": "CNC(=O)[C@H](Cc1ccc(NC(=N)N)cc1)NC(=O)[C@H](CC(C)C)[C@H](CCCc1ccccc1)C(=O)NO", "OBSERVED RESULT": "6 nM"}

Then this molecule:
Ask: Give Interstitial collagenase (Homo sapiens, UniProt P03956) IC50 for C=CCONC(=O)[C@@H]1[C@@H](C)N(C(C)=O)CCN1S(=O)(=O)c1ccc(OCc2ccc(C)cc2)cc1
Result: 1600 nM

----------
# TARGET OR SYSTEM: Disintegrin and metalloproteinase domain-containing protein 17 (Homo sapiens)
# Sequence (P78536 whole entry, the tested form may be a part): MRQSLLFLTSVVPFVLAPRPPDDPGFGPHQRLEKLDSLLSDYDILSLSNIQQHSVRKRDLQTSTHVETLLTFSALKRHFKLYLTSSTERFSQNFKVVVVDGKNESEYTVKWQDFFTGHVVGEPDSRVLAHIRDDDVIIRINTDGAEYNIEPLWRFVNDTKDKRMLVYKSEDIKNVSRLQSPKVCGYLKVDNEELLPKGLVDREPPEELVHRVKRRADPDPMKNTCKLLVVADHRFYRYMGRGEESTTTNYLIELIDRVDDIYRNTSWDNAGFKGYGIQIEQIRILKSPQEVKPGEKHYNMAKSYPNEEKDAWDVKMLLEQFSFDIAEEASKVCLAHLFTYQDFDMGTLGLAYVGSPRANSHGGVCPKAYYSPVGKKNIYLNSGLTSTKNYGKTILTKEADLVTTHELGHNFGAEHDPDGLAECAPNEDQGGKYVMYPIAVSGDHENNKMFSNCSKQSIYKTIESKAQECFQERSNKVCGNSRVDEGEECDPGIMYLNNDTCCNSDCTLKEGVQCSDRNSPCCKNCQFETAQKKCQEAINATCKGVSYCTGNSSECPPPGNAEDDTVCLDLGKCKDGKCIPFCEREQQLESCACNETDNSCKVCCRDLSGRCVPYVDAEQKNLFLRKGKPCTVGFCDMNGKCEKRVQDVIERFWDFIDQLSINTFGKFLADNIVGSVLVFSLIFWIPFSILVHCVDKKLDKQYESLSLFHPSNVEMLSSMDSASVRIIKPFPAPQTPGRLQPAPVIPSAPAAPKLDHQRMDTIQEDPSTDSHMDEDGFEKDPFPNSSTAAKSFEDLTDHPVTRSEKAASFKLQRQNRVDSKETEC
# TEST NAME: Inhibition of TACE by cell free assay
RECORDED METRIC: IC50
Report field: quantity (unit follows the number).

{"SMI": "CCC[C@@H]([C@@H](CC(C)C)C(=O)C[C@@H](CCCN/C(N)=N/[N+](=O)[O-])C(=O)Nc1nccs1)N(O)C=O", "IC50": "4.3 nM"}

Then this compound:
Ask: // returns reported IC50 for input CC[C@H](C)[C@H](NC(=O)[C@H](CC(C)C)[C@H](C(C)C)N(O)C=O)C(=O)Nc1ccccn1
Result: 40 nM

----------
# TARGET OR SYSTEM: Disintegrin and metalloproteinase domain-containing protein 17 (Homo sapiens)
# TEST NAME: Inhibition of TACE in human PBMC
RECORDED METRIC: IC50 (nM)
Kindly answer with a numeric value in nM, unit omitted.

{"SMI": "CNC(=O)[C@@H](NC(=O)[C@H](c1ccc(C)cc1)[C@H](CO)C(=O)NO)C(C)(C)C", "IC50 / nM": 141}

Ask: // returns reported IC50 for input CNC(=O)[C@@H](NC(=O)[C@H](c1ccc(OC)cc1)[C@H](CO)C(=O)NO)C(C)(C)C
Result: 56
